Origin of values: the supplement of paper PMC6757056

Field: normalized RNA/DNA level without ligand (log10). Provide a value for each of the variants that follow.
B1: library; a variant is named by its letters at N, in order (parent)
chain: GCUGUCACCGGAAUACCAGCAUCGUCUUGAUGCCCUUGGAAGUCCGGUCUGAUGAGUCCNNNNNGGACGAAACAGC

# Variants of: B1
# methodDescription: normalized RNA/DNA level without ligand (relative to sTRSVctl = 100) (log10 (% of sTRSVctl)); higher = less ribozyme self-cleavage, higher mRNA level
# experimentalParameters: HEK293T, reporter: mCherry (pCS4076), ligand present: no
One number for each entry.

ACCUU ... 1.95
UAGGA ... 1.55
UACAA ... 1.6

Hi, could you look up normalized RNA/DNA level without ligand (log10) for each item in my list?
1. UCAGU
2. GCAAC
3. CAAUC

Reply text:
1.88
1.83
1.83

Quick one: give me normalized RNA/DNA level without ligand (log10) for each item below, same order please.
1. CAACU
2. ACGAU
3. UCCCU
4. UAAUG
5. GAACG
6. AGACG

Reply text:
1.73
1.69
1.97
1.81
1.79
1.89
